Entry source: ChEMBL document CHEMBL1130277

As an illustration, consider measured pEC50 for molecules on Aryl hydrocarbon receptor (Homo sapiens).
Sequence (P35869 whole entry): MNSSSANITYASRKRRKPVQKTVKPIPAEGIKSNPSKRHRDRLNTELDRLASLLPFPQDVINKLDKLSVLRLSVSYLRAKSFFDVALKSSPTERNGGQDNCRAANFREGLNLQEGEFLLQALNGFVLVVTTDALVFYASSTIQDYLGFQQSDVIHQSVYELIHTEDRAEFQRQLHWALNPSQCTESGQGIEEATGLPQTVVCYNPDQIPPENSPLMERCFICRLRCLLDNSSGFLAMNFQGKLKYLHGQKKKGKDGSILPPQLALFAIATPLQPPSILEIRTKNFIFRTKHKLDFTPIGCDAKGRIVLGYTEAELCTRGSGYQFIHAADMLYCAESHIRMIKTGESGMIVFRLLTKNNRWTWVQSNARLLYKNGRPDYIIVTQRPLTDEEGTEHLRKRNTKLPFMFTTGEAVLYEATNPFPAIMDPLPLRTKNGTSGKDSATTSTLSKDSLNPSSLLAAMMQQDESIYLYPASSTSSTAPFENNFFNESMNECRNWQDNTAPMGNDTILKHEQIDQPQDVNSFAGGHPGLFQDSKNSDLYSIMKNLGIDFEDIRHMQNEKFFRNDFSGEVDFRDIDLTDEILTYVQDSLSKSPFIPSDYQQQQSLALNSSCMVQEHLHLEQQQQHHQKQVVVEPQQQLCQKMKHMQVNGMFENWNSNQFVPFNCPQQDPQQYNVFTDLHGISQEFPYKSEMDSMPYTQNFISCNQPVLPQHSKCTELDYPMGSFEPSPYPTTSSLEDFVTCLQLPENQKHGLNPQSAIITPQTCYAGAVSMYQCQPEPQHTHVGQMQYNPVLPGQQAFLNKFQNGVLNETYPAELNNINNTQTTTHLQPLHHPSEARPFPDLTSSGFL
Answers are plain numbers, as −log10 of the molar value.

As a guide, the following entries are already answered.
Clc1cc2c(oc3c(Cl)cc(Cl)c(Cl)c32)c(Cl)c1Cl ... 5.08
Clc1ccc(-c2cc(Cl)c(Cl)c(Cl)c2)c(Cl)c1 ... 4.85
Clc1ccc2c(c1)oc1ccccc12 ... 4.38

Below is a list of molecules. For each, state its recorded pEC50.
1. Clc1ccc(-c2cc(Cl)c(Cl)c(Cl)c2)cc1Cl
2. Clc1cc2oc3c(Cl)cccc3c2c(Cl)c1Cl
3. Clc1ccc2c(c1)oc1cc(Cl)c(Cl)c(Cl)c12
4. Clc1cc2c(cc1Cl)Oc1cc(Br)c(Br)cc1O2
5. Clc1ccc2oc3c(Cl)cc(Cl)c(Cl)c3c2c1
6. Clc1cc2c(oc3c(Cl)c(Cl)c(Cl)cc32)c(Cl)c1Cl
7. Clc1cc2c(cc1Cl)Oc1c(Cl)c(Cl)cc(Cl)c1O2

[out]
6.89
6.46
6.66
8.83
5.00
7.33
5.96

* * *

As an illustration, consider measured IC50 for molecules on Acetylcholinesterase (Homo sapiens, UniProt P22303).
Sequence (P22303 whole entry): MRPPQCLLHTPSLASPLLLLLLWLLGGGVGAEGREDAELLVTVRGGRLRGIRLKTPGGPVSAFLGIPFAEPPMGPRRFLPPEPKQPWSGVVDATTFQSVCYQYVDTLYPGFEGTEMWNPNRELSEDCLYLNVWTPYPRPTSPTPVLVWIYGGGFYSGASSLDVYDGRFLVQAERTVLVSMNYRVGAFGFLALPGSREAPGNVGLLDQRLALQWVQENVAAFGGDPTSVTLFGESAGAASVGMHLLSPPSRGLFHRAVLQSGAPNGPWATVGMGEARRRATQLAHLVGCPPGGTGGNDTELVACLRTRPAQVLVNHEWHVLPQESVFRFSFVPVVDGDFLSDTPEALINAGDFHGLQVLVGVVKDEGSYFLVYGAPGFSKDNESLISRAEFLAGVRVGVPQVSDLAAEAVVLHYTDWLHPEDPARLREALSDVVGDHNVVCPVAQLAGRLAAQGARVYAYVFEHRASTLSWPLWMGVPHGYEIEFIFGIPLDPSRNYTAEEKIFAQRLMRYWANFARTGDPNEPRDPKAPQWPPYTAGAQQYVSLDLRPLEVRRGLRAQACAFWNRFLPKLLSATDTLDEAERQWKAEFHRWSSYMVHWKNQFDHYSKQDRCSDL
Answers are plain numbers, in µM.

CC(=O)Oc1ccc(C)c([N+](C)(C)C)c1 ... 5.33

Below is a list of molecules. For each, state its recorded IC50.
1. CC(=O)CCC[N+](C)(C)C
2. C[N+](C)(C)CCCCI
3. CC(=O)Oc1cccc([N+](C)(C)C)c1

[out]
1. 84.7
2. 471
3. 3.01

Below is a list of molecules. For each, state its recorded IC50.
1. C=CC[N+](C)(C)C
2. CCC(=O)Oc1cccc([N+](C)(C)C)c1
3. C[N+]1(C)CCO[C@@](O)(c2ccc([N+](=O)[O-])cc2)C1
4. CC(=O)Nc1cccc([N+](C)(C)C)c1

[out]
[2920, 5.97, 5120, 1000]

* * *

subjectOfTest: GABA-A receptor; anion channel
Decide using pIC50: a value greater than or equal to 8 is TRUE, a smaller one is FALSE.

Cc1cccc2c1[nH]c1c3c4ccccc4nc-3c[nH]c12 ... FALSE
COC(=O)c1cc2c(cn1)[nH]c1ccccc12 ... TRUE
Clc1cc2c(cn1)[nH]c1ccccc12 ... FALSE
O=C1C2C=Nc3ccccc3C2=NN1c1ccc(Cl)cc1 (stereo unspecified) ... TRUE

[in] Textbook exercise: given the entry CCc1nc(C(=O)OC)cc2c1[nH]c1ccccc12 , state whether its pIC50 is greater than or equal to 8.
[out] FALSE

[in] Textbook exercise: given the entry CCOC(=O)c1cc2c(cn1)nc(O)c1ccccc12 , state whether its pIC50 is greater than or equal to 8.
[out] FALSE

* * *

As an illustration, consider measured pIC50 for compounds on Acetylcholinesterase (Homo sapiens, UniProt P22303).
Answers are plain numbers, as −log10 of the molar value.

As a guide, the following entries are already answered.
CCCC(=O)OCC[N+](C)(C)C ... 3.64
C[N+]1(C)CCO[C@@](O)(c2ccc(N)cc2)C1 ... 3.16

Below is a list of compounds. For each, state its recorded pIC50.
1. CCCCCC[N+](C)(C)C
2. Cc1ccc(O)cc1[N+](C)(C)C

[out]
1. 3.09
2. 5.55
